experiment: Pharmacokinetic analysis (intravenous and oral), Method B9; type: in vivo; settings: plasma, intravenous
PROPERTY_MEASURED: clearance (mL/min/kg)
Enter your answer as a number in mL/min/kg; do not include the unit.

## Input I would be grateful if you could share the reported clearance for CC[C@@H]1CCc2ccc(F)cc2OCCN[C@@H](C(C)C)C(=O)N(C)[C@@H](C(C)O)C(=O)N[C@H](Cc2c[nH]c3ccccc23)C(=O)N1 (stereo partly shown) .
## Output 23

###

Papp B→A at 60 min, 10 μM values, listed per item
experiment: Caco-2 permeability, Method B7; assay type: in vitro ADME, human; conditions: human; Caco-2, 10 μM, without P-gp inhibitor
Return type: number; implicit unit ×10⁻⁶ cm/s.

Solved entries (count: 3):
- COMPOUND: "CC(C)[C@@H]1NCCOc2cccc(F)c2C#CCNC(=O)[C@@H](Cc2ccccc2)NC(=O)[C@H](C(C)O)N(C)C1=O (some centres unmarked)"
  DISPLAY_UNIT: "×10⁻⁶ cm/s"
  OBS_VALUE: 36.9
- COMPOUND: "CC(C)[C@@H]1NCCOc2ccccc2C2CCC(C2)NC(=O)[C@@H](Cc2ccc(F)cc2)NC(=O)[C@H](C(C)O)N(C)C1=O (some centres unmarked)"
  DISPLAY_UNIT: "×10⁻⁶ cm/s"
  OBS_VALUE: 58.9
- COMPOUND: "CC[C@@H]1NCC2CCc3cccc(c3O2)CCCNC(=O)[C@@H](Cc2ccccc2)NC(=O)[C@H](C(C)O)N(C)C1=O (some centres unmarked)"
  DISPLAY_UNIT: "×10⁻⁶ cm/s"
  OBS_VALUE: 29.5

Kindly review the next compound as well.
## Input Can you share its Papp B→A at 60 min, 10 μM? I mean this compound: CC(O)[C@H]1C(=O)N[C@H](Cc2ccccc2)C(=O)NCC#Cc2c(F)cccc2OCCN[C@@H](C2(C)CC2)C(=O)N1C (some centres unmarked)
## Output 28
